# target_under_test: T1, IGF-IR-Fc (human, UniProt P08069 31-932)
# T1 construct: range 1-932; Made in house by transient transfection, captured on Protein A on CM5 chips for kinetic analysis; also called human IGF-IR-Fc fusion protein; recombinant, immobilized IGF-IR (BIAcore); not shown: hinge and constant regions of human IgG1
# protocol_text: SPR (BIAcore); IGF-IR-Fc captured on Protein A, clone in solution
experimental_readout: kon (M⁻¹ s⁻¹)
Kindly provide the numeric value in M⁻¹ s⁻¹ only, without the unit symbol.

# input binder: 386F10 (designed binder, FG loop optimized derivative of 338A06) VSDVPRDLEVVAATPTSLLISWSARLKVARYYRITYGETGGNSPVQEFTVPKNVYTATISGLKPGVDYTITVYAVTLLRDYGPISINYRTHHHHHH ; wanted: its kon
1.9e+06

386A03 (designed binder, FG loop optimized derivative of 338A06) VSDVPRDLEVVAATPTSLLISWSARLKVARYYRITYGETGGNSPVQEFTVPKNVYTATISGLKPGVDYTITVYAVTNLRDYGPISINYRTHHHHHH ?
5.2e+06

And 385A08 (designed binder, FG loop optimized derivative of 338A06; also called clone 385A08; unmodified 385A08) VSDVPRDLEVVAATPTSLLISWSARLKVARYYRITYGETGGNSPVQEFTVPKNVYTATISGLKPGVDYTITVYAVTRFRDYQPISINYRTHHHHHH ?
5.7e+06

Please answer likewise for 387B01 (designed binder, FG loop optimized derivative of 338A06) VSDVPRDLEVVAATPTSLLISWSARLKVARYYRITYGETGGNSPVQEFTVPKNVYTATISGLKPGVDYTITVYAVTSLRDYGPISINYRTHHHHHH
6.5e+06

Reference source: patent US20130310317A1
